Target: HIV-1 proteinase (HIV-1 PR) (Human immunodeficiency virus type 1 group M subtype B)
Construct: HIV-1 proteinase digests the fluorescent-labeled substrate; purchased
Test: Screening for in vitro activity against HIV-1 proteinase
Format: biochemical
Conditions: five 5× serial dilutions from 50 μg/ml; read-out: IC50
Procedure: Principle of the test: HIV-1 proteinase digests the fluorescent-labeled substrate in an optimal reaction condition and system. The activity of the enzyme can be reflected by the fluorescent intensity in the product of the enzyme reaction. Adding a sample into the reaction system can be used for screening the inhibitor of the enzyme. 1. HIV-1 PR: commercially available, stored at −85° C. 2. […] 4. […] The fluorescent value was measured with a FLUO star Galaxy luminoscope.
pIC50: −log10 of the molar value.
REPORTED_ENDPOINT: pIC50

The observed pIC50 for CC(C)C1CC23OC1(O)C/C(=C\Nc1ccc(O)cc1)C2CCC3C (stereo not shown) [Compound 5, Curcumol p-hydroxy aniline] when tested with HIV-1 proteinase (HIV-1 PR) (Human immunodeficiency virus type 1 group M subtype B) stands at < 3.84

* * *

system: Hepatitis B virus (HBV); assay type: cell-based; conditions: 200 μg/ml, supernatant four days after infection; positive control 1.917, negative 0.057
Counter-ions that a name gives are not always drawn.
REPORTED_ENDPOINT: OD450 of HBeAg
I only need the number, thanks.

Please review the following examples before continuing.
                                   compound  recorded_value
0  CC(C)C1CC23OC1(O)C/C(=C\NC(C)(C)C)C2CCC3C (stereo not shown) [Compound 16, Curcumol t-butyl amine hydrochloride]           0.502
1  CC(C)C1CC23OC1(O)CC1(CO1)C2CCC3C (stereo not shown)           0.365
2  CCCCNC=C1CC2(O)OC3(CC2C(C)C)C(C)CCC13.Cl (stereo not shown) [Compound 14, Curcumol n-butyl amine hydrochloride]           0.053
3  CC(C)C1CC23OC1(O)CC(C)C2CCC3C (stereo not shown) [Compound 33, hydrogenated curcumol derivative]           0.068
4  C=C1CC2(O)OC3(CC2C(C)C)C(C)CCC13 (stereo not shown) [Curcumol E, Curcumol, reference compound]           2.654

The observed OD450 of HBeAg for CC(C)C1CC23OC1(O)C/C(=C\Nc1ccc(O)cc1)C2CCC3C (stereo not shown) [Compound 6, Curcumol p-hydroxy aniline hydrochloride] when tested with Hepatitis B virus (HBV) stands at 0.126

The observed OD450 of HBeAg for C=C1CC2(OS(=O)(=O)[O-])OC3(CC2C(C)C)C(C)CCC13.[Na+] (stereo not shown) [Compound 21, Curcumol sodium sulfonate] when tested with Hepatitis B virus (HBV) stands at 0.137

* * *

system: MCF-7 human mammary adenocarcinoma; test: In vitro anti-tumor IC50 (MTT), MCF-7; format: cell-based; settings: Homo sapiens, MCF7; Table 4; read-out: IC50 (ug/ml) against tumor cell lines, MCF
Where a name gives a salt, the structure may show the parent alone.
REPORTED_ENDPOINT: IC50 (µg/mL)
Give the quantity in µg/mL, number only.

>>> df
                                   molecule  reported_endpoint  unit_string  recorded_value
0  CC(C)C1CC23OC1(O)CC(=CBr)C2CCC3C (stereo not drawn) [Compound 17, Curcumol monobromide]               IC50        µg/mL            4.63
1  CC(C)C1CC23OC1(O)CC(=CN1CCNCC1)C2CCC3C (stereo not drawn) [Compound 8, Curcumol piperazine hydrochloride]               IC50        µg/mL            3.28
2  CC(C)C1CC23OC1(O)C/C(=C\Nc1ccc(O)cc1)C2CCC3C (stereo not drawn) [Compound 5, Curcumol p-hydroxy aniline]               IC50        µg/mL               1
3  C=C1CC2(OS(=O)(=O)[O-])OC3(CC2C(C)C)C(C)CCC13.[Na+] (stereo not drawn) [Compound 21, Curcumol sodium sulfonate]               IC50        µg/mL            4.99
4  CC(C)C1CC23OC1(O)CC(=CN1CCNCC1)C2CCC3C (stereo not drawn) [Compound 7, Curcumol piperazine]               IC50        µg/mL             3.2

Now for a further molecule.
Data point: C=C1CC2(OS(=O)(=O)O)OC3(CC2C(C)C)C(C)CCC13 (stereo not drawn) [Compound 20, Curcumol sulfonate] ; IC50 = 4.98

* * *

system: LLC mouse Lewis lung carcinoma; assay: In vitro inhibition rate to tumor cells (MTT), LLC; assay type: cell-based; details: 50 μg/ml; Table 2 (repeated screening)
Measured inhibition rate, Results (%) LLC, listed per entry.

>>> df
                                   compound  recorded_value
0  CC(C)C1CC23OC1(O)C/C(=C\NC(C)(C)C)C2CCC3C (centres unmarked) [Compound 15, Curcumol t-butyl amine]         −10.12%

Data point: CC(C)C1CC23OC1(O)CC(=CO)C2CCC3C (centres unmarked) [Compound 18, Curcumol monohydroxy compound] ; inhibition rate, Results (%) LLC = 0.22%

Data point: CC(C)C1CC23OC1(O)CC(=CN1CCNCC1)C2CCC3C (centres unmarked) [Compound 7, Curcumol piperazine] ; inhibition rate, Results (%) LLC = −2.99%

* * *

test system: HepG2 cells; assay: Cell status of HepG2 cells treated with sample (HBV screening); assay type: cell-based; settings: 200 μg/ml, HepG2, four days after infection
REPORTED_ENDPOINT: Cell status

Please review the following examples before continuing.
>>> print(df.to_string())
                                   molecule  reported_endpoint  recorded_value
0  C=C1CC2(OS(=O)(=O)O)OC3(CC2C(C)C)C(C)CCC13 (stereo not shown) [Compound 20, Curcumol sulfonate]        Cell status          Normal
1  C=C1CC2(OC(=O)CCC)OC3(CC2C(C)C)C(C)CCC13 (stereo not shown) [Compound 2, Curcumol butyrate]        Cell status          Normal
2  CC(C)C1CC23OC1(O)CC1(CO1)C2CCC3C (stereo not shown) [Compound 47, Curcumol epoxy compound]        Cell status            Poor
3  CCCCNC=C1CC2(O)OC3(CC2C(C)C)C(C)CCC13.Cl (stereo not shown) [Compound 14, Curcumol n-butyl amine hydrochloride]        Cell status            Poor
4  C=C1CC2(O)OC3(CC2C(C)C)C(C)CCC13 (stereo not shown) [Curcumol E, Curcumol, reference compound]        Cell status          Normal
5  C=C1CC2(OC(=O)C(C)C)OC3(CC2C(C)C)C(C)CCC13 (stereo not shown) [Compound 3, Curcumol isobutyrate]        Cell status          Normal

Data point: CC(C)C1CC23OC1(O)CC(C)C2CCC3C (stereo not shown) [Compound 33, hydrogenated curcumol derivative] ; Cell status = Poor

* * *

system: HepG2 cells; assay: Cell status of HepG2 cells treated with sample (HBV screening); assay type: cell-based; conditions: 200 μg/ml, HepG2, four days after infection
Structures can show the parent of a compound that is named as a salt.
REPORTED_ENDPOINT: Cell status

                                   compound  recorded_value
0  CC(C)C1CC23OC1(O)C/C(=C\Nc1ccc(O)cc1)C2CCC3C (stereo not shown) [Compound 6, Curcumol p-hydroxy aniline hydrochloride]          Normal
1  CC(C)C1CC23OC1(O)C/C(=C\NC(C)(C)C)C2CCC3C (stereo not shown) [Compound 16, Curcumol t-butyl amine hydrochloride]          Normal
2  C=C1CC2(OC)OC3(CC2C(C)C)C(C)CCC13 (stereo not shown)            Poor
3  CC(C)C1CC23OC1(O)CC(=CBr)C2CCC3C (stereo not shown) [Compound 17, Curcumol monobromide]            Poor

* * *

system: Bel-7402 human hepatic carcinoma; assay: In vitro inhibition rate to tumor cells (MTT), Bel-7402; type: cell-based; details: Homo sapiens, Bel-7402, 50 μg/ml; Table 2 (repeated screening); read-out: inhibition rate, Results (%) Bel-7402
REPORTED_ENDPOINT: inhibition at 50 µg/mL (%)
Give the quantity in %, number only.

Please review the following examples before continuing.
In [3]: df
Out[3]:
                                   molecule       reported_endpoint  unit_string  recorded_value
0  C=C1CC2(OC(=O)CCC)OC3(CC2C(C)C)C(C)CCC13 (stereo not shown) [Compound 2, Curcumol butyrate]  inhibition at 50 µg/mL            %            12.8
1  CC(C)C1CC23OC1(O)CC(O)(CO)C2CCC3C (stereo not shown) [Compound 32, Curcumol dihydroxy compound]  inhibition at 50 µg/mL            %            4.23
2  CC(C)C1CC23OC1(O)CC(=CBr)C2CCC3C (stereo not shown) [Compound 17, Curcumol monobromide]  inhibition at 50 µg/mL            %           -10.9

Now for a further molecule.
Data point: CC(C)C1CC23OC1(O)C/C(=C\Nc1ccc(O)cc1)C2CCC3C (stereo not shown) [Compound 5, Curcumol p-hydroxy aniline] ; inhibition at 50 µg/mL = 81.5
